cytotoxicity at 70.5 h by entry:
Experiment: Human HepG2 cell viability assay in 384 well format
Type: toxicity, cell-based
Set-up: dose 125 nL, time 70.5 hour; concentration not given beside the values
Conditions: HepG2 cells, read-out: Inhibition
Only the number, expressed in %, is required.

>>> measurement("CC[C@H]1CN(C(=O)C2CC2)CC[C@H]1CC(=O)NCCN1CCOCC1")
-0.373
>>> measurement("Cc1cc(C(=O)CN2CCN(c3nccs3)CC2)c(C)n1C1CC1")
-10.5
>>> measurement("O=C(NCCNC1CCCC1)c1cccs1")
-6.72
>>> measurement("NC(=O)C1CCCN1C1CCN(C(=O)c2cccc3c2OCO3)CC1 (configuration not stated)")
-0.518

Alright, here's another molecule for you.
[Q] Item Cc1cccc(OCCNC(=O)Cn2ccc(C)cc2=O)c1 has what recorded cytotoxicity at 70.5 h?
[A] -8.95
